molecular target: MEK1 activated ERK1 (Homo sapiens (Human)); assay: Omnia continuous-read kinase assay for potency against MEK1 activated ERK1; assay type: biochemical; conditions: MEK1 activated ERK1, WT, ATP at KM
Sequence (P27361 whole entry): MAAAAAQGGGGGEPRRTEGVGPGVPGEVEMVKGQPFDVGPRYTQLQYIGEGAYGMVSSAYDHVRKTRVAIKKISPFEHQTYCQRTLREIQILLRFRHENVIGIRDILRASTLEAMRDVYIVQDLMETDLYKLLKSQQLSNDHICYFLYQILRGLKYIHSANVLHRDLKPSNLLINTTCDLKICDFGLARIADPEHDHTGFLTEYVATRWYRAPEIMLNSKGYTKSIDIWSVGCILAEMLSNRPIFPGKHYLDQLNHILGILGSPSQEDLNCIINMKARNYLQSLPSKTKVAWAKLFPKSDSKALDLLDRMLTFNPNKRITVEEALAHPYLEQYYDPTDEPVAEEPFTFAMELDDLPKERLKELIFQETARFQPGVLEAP
# reported IC50; entries follow

[
  {
    "compound": "C=CC(=O)Nc1cc(OC)ccc1Nc1nc(Nc2cc(OC)ncc2C)ncc1C(F)(F)F [Compound I-284]",
    "IC50": "< 100 nM"
  },
  {
    "compound": "C=CC(=O)Nc1cc(OC)ccc1Nc1nc(Nc2ccc(N3CCC[C@H]3CO)cc2C(F)(F)F)ncc1Cl [Compound I-158]",
    "IC50": "> 1000 nM"
  },
  {
    "compound": "C=CC(=O)Nc1cc(F)ccc1Nc1nc(Nc2cc(OC)ncc2C)ncc1C(F)(F)F [Compound I-322]",
    "IC50": "< 100 nM"
  },
  {
    "compound": "C=CC(=O)Nc1cc(OC)ccc1Nc1nc(Nc2cc(C(N)=O)ccc2C)ncc1Cl [Compound I-237]",
    "IC50": "< 100 nM"
  },
  {
    "compound": "C=CC(=O)Nc1ccccc1Nc1nc(NC2CCC(=O)CC2)ncc1C(F)(F)F [Compound I-23]",
    "IC50": "< 100 nM"
  },
  {
    "compound": "C=CC(=O)Nc1ccccc1Nc1nc(N[C@H]2CCCN(C(=O)OC)C2)ncc1C(F)(F)F [Compound I-17]",
    "IC50": "< 100 nM"
  },
  {
    "compound": "C=CC(=O)N[C@H]1CCCC[C@@H]1Nc1nc(Nc2cc(C(N)=O)ccc2C)ncc1Cl [Compound I-201]",
    "IC50": "> 1000 nM"
  },
  {
    "compound": "C=C(C)S(=O)(=O)Nc1ccccc1Nc1nc(NC2CCC(=O)CC2)ncc1C(F)(F)F [Compound I-40]",
    "IC50": "< 100 nM"
  },
  {
    "compound": "C=CC(=O)Nc1cc(C)ccc1Nc1nc(Nc2nc(O)ncc2Cl)ncc1C(F)(F)F [Compound I-363]",
    "IC50": "> 1000 nM"
  },
  {
    "compound": "C=CC(=O)Nc1cc(C)ccc1Nc1nc(Nc2cc(OC)ncc2C)ncc1C(F)(F)F [Compound I-90]",
    "IC50": "< 100 nM"
  },
  {
    "compound": "C#CCOc1cc(C)c(Nc2ncc(Cl)c(Nc3ccccc3NC(=O)C=C)n2)cc1C(N)=O [Compound I-228]",
    "IC50": "< 100 nM"
  },
  {
    "compound": "NC(=O)c1ccccc1Nc1nc(N[C@H]2CCCN(C(=O)CO)C2)ncc1C(F)(F)F [Compound I-307]",
    "IC50": "< 100 nM"
  },
  {
    "compound": "C=CC(=O)Nc1ccccc1Nc1nc(N[C@H]2CC[C@H](F)CC2)ncc1C(F)(F)F [Compound I-111]",
    "IC50": "101 to 500 nM"
  },
  {
    "compound": "C=CC(=O)Nc1ccccc1Nc1nc(Nc2cc(C(N)=O)ccc2C)ncc1C(F)(F)F [Compound I-68]",
    "IC50": "< 100 nM"
  },
  {
    "compound": "C=CC(=O)Nc1cc(C)ccc1Nc1nc(N[C@H]2CCCN(S(=O)(=O)C=C)C2)ncc1C(F)(F)F [Compound I-277]",
    "IC50": "> 1000 nM"
  },
  {
    "compound": "C=C(F)C(=O)Nc1ccccc1Nc1nc(N[C@H]2CCCN(C(C)=O)C2)ncc1C(F)(F)F [Compound I-55]",
    "IC50": "< 100 nM"
  }
]

From: patent US9796700B2
